- Tested on: HL-60(TB) leukemia
- assay-overview: NCI-60 one-dose screen, 48 h (100 = growth as untreated, 0 = no growth, -100 = all killed)
- assay-conditions: 10 µM unless noted
The panel holds about 83,000 compounds, 20% with a hit somewhere; the sample as a whole holds those more often.
observable: growth (%)
Give a bare numeral; the unit % is implied.

Recorded growth for c1cnc2[nH]cc(-c3csc(-c4cn(CCCCN5CCOCC5)c5ccccc45)n3)c2c1 , please?
-58.2

Recorded growth for CCOC(=O)[C@@H](C)C[C@H](Cc1ccccc1)NC(=O)c1csc([C@@H](C[C@H](C(C)C)N(C)C(=O)[C@H](CC)NC(=O)[C@H]2CCCCN2C)OC(C)=O)n1 , please?
-26.4

Recorded growth for Nc1c(F)cc(-c2nc3cc(F)ccc3[se]2)cc1Br , please?
95.9

Recorded growth for COC[C@@H]1C[C@@]2(C)[C@@H](CC[C@@H]3[C@@H]2CC[C@@]2(C)[C@H]3CC[C@]2(C)O)CC1=O , please?
78.6

Recorded growth for Cc1c(O)c(CN(CCCl)CCCl)cc(CN(CCCl)CCCl)c1O , please?
47.1

Recorded growth for CCCCCCCC[N+](C)(CCCCCCCC)CCCCCCCC , please?
32

Recorded growth for c1ccc(Nc2nc(-c3ccccc3)c[se]2)cc1 , please?
102

Recorded growth for COC(=O)C1CCC(NC(=O)c2csc([C@@H](C[C@H](C(C)C)N(C)C(=O)[C@@H](NC(=O)[C@H]3CCCCN3C)C(C)C)OC(C)=O)n2)CC1 (some centres undefined) , please?
-21.8

Recorded growth for C[N+](C)(C)Cc1cc(Cl)ccc1O , please?
87.4

Recorded growth for O=C(O)C1C(C(=O)O)C2(Cl)C(Cl)=C(Cl)C1(Cl)C2(Cl)Cl.[Hg] (centres undefined) , please?
68.9

Recorded growth for O=[N+]([O-])CC(O)C(Cl)(Cl)Cl (centres undefined) , please?
83.7

Recorded growth for COc1cccc(C=NC(Cc2cnc[nH]2)C(=O)O)c1O (centres undefined) , please?
189

Recorded growth for CC[S][Hg][Cl] , please?
113

Recorded growth for CC(=O)O[C@H](C[C@H](C(C)C)N(C)C(=O)[C@@H](NC(=O)[C@H]1CCCN1C)C(C)C)c1nc(C(=O)N[C@@H](Cc2ccccc2)C[C@H](C)C(=O)O)c(C)s1 , please?
-19.2

Recorded growth for Nc1c(F)cc(-c2nc3cc(F)ccc3[se]2)cc1F , please?
83.5

Recorded growth for COc1ccc(S(=O)(=O)Nc2c(/C=C\c3cc(OC)c(OC)c(OC)c3)ccc(OC)c2O)cc1OC , please?
4.28

Recorded growth for CC[C@H](C)[C@H](NC(=O)C12CC(NC(C)=O)(C1)C2)C(=O)N(C)[C@H](C[C@@H](OC(C)=O)c1nc(C(=O)N[C@@H](Cc2ccccc2)C[C@H](C)C(=O)OC)cs1)C(C)C , please?
-10.1

Recorded growth for Cc1cc(N(CCCl)CCCl)ccc1/C=N\NC(=O)c1ccncc1 , please?
53.4

Recorded growth for O=C(Nc1ccc(Cl)cc1)Nc1nccs1 , please?
-18.6

* * *

- Test system: MDA-MB-231 breast
- assay-overview: NCI-60 one-dose screen, 48 h (100 = growth as untreated, 0 = no growth, -100 = all killed)
- assay-conditions: 10 µM unless noted
- Description: Cells are grown in 96 well plates and exposed to the test compound for 48 hours. Compounds are tested at a single concentration, which is 10^-5 M for most compounds. The reported endpoint is percent growth (GI% or GIPRCNT), where numbers from 0 - 100% represent growth inhibition, and numbers from -100% - 0 represent cell death. For example, a value of 40 represents 60% growth inhibition. A value of 0 means no net growth occurred over the course of the experiment. […]
The panel holds about 83,000 compounds, 20% with a hit somewhere; the sample as a whole holds those more often.
Provide the reported growth of each item.
Give a bare numeral; the unit % is implied.

Recorded growth for COc1cc(/C=N/C2=C(C#N)C(c3ccco3)c3c(c4cc(C)ccc4oc3=O)O2)cc(OC)c1OC (stereo unspecified) , please?
95.6

Recorded growth for CCOC(=O)[C@@H](C)C[C@H](Cc1ccccc1)NC(=O)c1csc([C@@H](C[C@H](C(C)C)N(C)C(=O)CNC(=O)[C@H]2CCCCN2C)OC(C)=O)n1 , please?
14.5

Recorded growth for COc1ccc2c(c1)c(-c1nc(-c3cn(C)c4ncccc34)cs1)cn2CCCCN1CCCCC1 , please?
-74.8

Recorded growth for Cc1cc(N(CCCl)CCCl)ccc1C=Nc1ccccc1-c1ccccc1 , please?
94.4

Recorded growth for CCCOC(=O)N[C@H]1CCc2c(Br)c(OC)c(OC)c(OC)c2-c2ccc(SC)c(=O)cc21 , please?
-13.4

Recorded growth for COC(=O)[C@@H](C)C[C@H](Cc1ccccc1)NC(=O)c1csc([C@@H](C[C@H](C(C)C)N(C)C(=O)[C@@H](NC(=O)[C@H]2CCCCN2C)C(C)C)OC(C)=O)n1 , please?
1.38

Recorded growth for O=[N+]([O-])c1cc(I)cc([N+](=O)[O-])c1 , please?
95.7

Recorded growth for Fc1c[c-]c(-c2ccccn2)c(F)c1.[CH3-].[Pt+2].c1ccc([PH+](c2ccccc2)c2ccccn2)cc1 , please?
-70.6

Recorded growth for COC(=O)[C@@H](C)C[C@H](Cc1ccccc1)NC(=O)c1csc([C@@H](C[C@H](C(C)C)N(C)C(=O)C2(NC(=O)[C@H]3CCCCN3C)CC2)OC(C)=O)n1 , please?
13.4

Recorded growth for O=NN1CCCc2cccc(O)c21 , please?
78.8

Recorded growth for Oc1c(O)c(Cl)c(Cl)c(Cl)c1Cl , please?
44.8

Recorded growth for CC(=O)O[C@H](C[C@H](C(C)C)N(C)C(=O)[C@@H](NC(=O)[C@H]1CCCCN1C)C(C)C)c1nc(C(=O)NC2CCC(C(=O)O)CC2)cs1 (stereo partly specified) , please?
64.1

Recorded growth for OCCCCCNC1CCCCC1 , please?
114

Recorded growth for C1CCC2(CC1)OOCNCOO2 , please?
120

Recorded growth for Cc1cnc(/C=C/C(=O)O)cc1-c1cc2c(cc1C)C(C)(C)CCC2(C)C , please?
80.9

Recorded growth for Cc1ccc2c(C(C[N+](=O)[O-])c3cccs3)c(-c3ccccc3)[nH]c2c1 (stereo unspecified) , please?
44.1

Recorded growth for Nc1c(F)cc(-c2nc3cc(F)ccc3[se]2)cc1F , please?
54.6

Recorded growth for Oc1ccc2c3c1OC1[C@@H](O)CC[C@@]4(O)[C@@H](C2)N(CC2CCC2)CC[C@]314 (stereo partly specified) , please?
114

Recorded growth for COc1cc(NC(C)CCCNC2CN3CCC2CC3)c2ncccc2c1 (stereo unspecified) , please?
55.1

Recorded growth for CCc1ccccc1[C@@H]1C[C@]2(C)CCO[C@@H]2OO1 , please?
103

Recorded growth for Clc1cc(N2CC2)nc(N2CC2)n1 , please?
88.1

Recorded growth for COC(=O)[C@@H](C)C[C@H](Cc1ccccc1)NC(=O)c1nc([C@@H](C[C@H](C(C)C)N(C)C(=O)[C@@H](NC(=O)[C@H]2CC(=O)CCN2C)C(C)C)OC(C)=O)sc1C(C)C , please?
6.36

Recorded growth for COc1ccc(C(=O)c2sc3nc4c(cc3c2N)N2CCC4CC2)cc1OC , please?
66.9

Recorded growth for O=C(CC1(O)C(=O)N(Cc2ccccc2)c2ccccc21)c1ccc(C(=O)NCC2CCC3(CC2)OOC2(CCCCC2)OO3)cc1 (stereo unspecified) , please?
-65.8

Recorded growth for O[C@H](CN1CC1)[C@@H](O)CN1CC1 , please?
109

Recorded growth for O=C(Nc1ccc(O)cc1)C(Cl)(Cl)Cl , please?
98.4

Recorded growth for COc1cc2c(=O)n(C3CCCCCCC3)c3c4cc[nH]c4ncc3c2cc1OC , please?
42.1

Recorded growth for C[C@]12CCc3sc(NCCc4ccccc4)nc3C1=CC[C@@H]1[C@@H]2CC[C@]2(C)C(=O)CC[C@@H]12 , please?
83.1

Recorded growth for CC(=O)O[C@H](C[C@H](C(C)C)N(C)C(=O)[C@@H](NC(=O)[C@H]1CCCN1C)C(C)C)c1nc(C(=O)N[C@@H](Cc2ccccc2)C[C@H](C)C(=O)O)c(C)s1 , please?
15.1

Recorded growth for O=C1NC(=O)C(=Cc2cn(C(=O)c3ccccc3)c3ccccc23)C(=O)N1 , please?
88.9

Recorded growth for [Au+].[N-]=C=O.c1ccc(CN2[CH-]N(Cc3ccccc3)C(c3ccccc3)=C2c2ccccc2)cc1 , please?
86.4

Recorded growth for O=C(CCCCCCC(=O)Nc1ccc(N(CCCl)CCCl)cc1)NO , please?
85.8

Recorded growth for CC[C@H](C)[C@H](NC(=O)C12C3C4C1C1C2C3C41NC)C(=O)N(C)[C@H](C[C@@H](OC(C)=O)c1nc(C(=O)N[C@@H](Cc2ccccc2)C[C@H](C)C(=O)OC)cs1)C(C)C (stereo partly specified) , please?
29.1

Recorded growth for O=C(CCl)c1ccc([N+](=O)[O-])o1 , please?
64.6

Recorded growth for COC1OC(CO)C(O)C(O)[CH]1[Hg][O]C(C)=O (stereo unspecified) , please?
81.9

Recorded growth for CCOC(=O)[C@@H](C)C[C@H](Cc1ccccc1)NC(=O)c1nc([C@@H](C[C@H](C(C)C)N(C)C(=O)[C@@H](NC(=O)[C@H]2CCCCN2C)C(C)C)OC(C)=O)sc1CCOCc1ccccc1 , please?
-49.8
